The reported measurements were obtained from ChEMBL document CHEMBL1129414.

This section presents compounds with their documented IC50 values.
# Test system: L1210
# ASSAY_PROCEDURE: Compound was tested in vitro for cytotoxicity on L1210 leukemic cells by using MTT assay.
# Assay type: functional, cell-based
# PROTOCOL_CONDITIONS: Mus musculus
Your answer should be a plain number; it is taken to be in µM.

Here is how some compounds turned out for IC50.
COMPOUND	EXPERIMENTAL_TARGET	IC50 / µM
COc1cc2c(c3c1c(=O)c1ccccc1n3C)[C@@H](OC(C)=O)[C@@H](OC(=O)c1ccccc1)C(C)(C)O2	L1210	5
COc1cc2c(c3c1c(=O)c1ccccc1n3C)C=CC(C)(C)O2	L1210	24.1
COc1cc2c(c3c1c(=O)c1ccccc1n3C)[C@@H](O)[C@@H](OC(=O)c1ccccc1)C(C)(C)O2	L1210	7.1
Cn1c2ccccc2c(=O)c2ccc3c(c21)C=CC(C)(C)O3	L1210	29.7
COc1cc2c(c3c1c(=O)c1ccccc1n3C)[C@H]1OC(=O)O[C@H]1C(C)(C)O2	L1210	0.32

Q. Requested read-out: IC50. Entry: "COc1cc2c(c3c1c(=O)c1ccccc1n3C)[C@@H](O)[C@@H](OC(C)=O)C(C)(C)O2"
A. 8.9

Q. Likewise for "COc1cc2c(c3c1c(=O)c1ccccc1n3C)[C@@H](O)[C@@H](O)C(C)(C)O2" ?
A. 80.6

Q. Likewise for "COc1cc2c(c3c1c(=O)c1ccccc1n3C)[C@@H](OC(C)=O)[C@@H](OC(C)=O)C(C)(C)O2" ?
A. 5.8

Q. Likewise for COc1cc2c(c3c1c(=O)c1ccccc1n3C)CCC(C)(C)O2 [DIHYDROACRONYCINE] ?
A. 34.3

----------
This section presents compounds with their documented IC50 values.
# Tested on: L1210
# ASSAY_PROCEDURE: Compound was tested in vitro for cytotoxicity on L1210 leukemic cells by using MTT assay.
# Type: functional, cell-based
# PROTOCOL_CONDITIONS: Mus musculus

Here is how some compounds turned out for IC50.
LINE_NOTATION	IC50
Cn1c2ccccc2c(=O)c2ccc3c(c21)[C@@H](O)[C@@H](O)C(C)(C)O3	> 50 µM
Cn1c2ccccc2c(=O)c2ccc3c(c21)[C@H]1OC(=O)O[C@H]1C(C)(C)O3	> 50 µM

Okay, now this compound:
Q. Requested read-out: IC50. Entry: "CC(=O)O[C@@H]1c2c(ccc3c(=O)c4ccccc4n(C)c23)OC(C)(C)[C@@H]1OC(C)=O"
A. > 50 µM
